System: SW 1271 complex spheroids, viability
Experiment: Anticancer human tumor SW 1271 cell line growth inhibition [LSD1];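 further: spheroids exposed to agents for 7 days before luminescence read; 100% = DMSO vehicle control viability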
Details: second compound 10 µM; first compound 0.3 µM; hits give low values
observed_property: viability, T/C (%)
Numbers only, in %.

Guide cases for viability, T/C, answers given:
>>> reading("CCN(c1cc(-c2ccc(CN3CCOCC3)cc2)cc(C(=O)NCc2c(C)cc(C)[nH]c2=O)c1C)C1CCOCC1 + NC1CCC(NC2CC2c2ccccc2)CC1")
95.6
>>> reading("O=C(C=Cc1cccc(S(=O)(=O)Nc2ccccc2)c1)NO + NC1CC1c1ccc(-c2cccc(O)c2)cc1")
17.6
>>> reading("COc1cc(C2c3cc4c(cc3C(OC3OC5COC(C)OC5C(O)C3O)C3COC(=O)C23)OCO4)cc(OC)c1O (centres undefined) + NC1CCC(NC2CC2c2ccccc2)CC1")
72.2

Sure, the documented viability, T/C for CCc1c2c(nc3ccc(O)cc13)-c1cc3c(c(=O)n1C2)COC(=O)[C@]3(O)CC + NC1CC1c1ccc(-c2cccc(O)c2)cc1 is 5.03

----------
System: SW 1271 complex spheroids, viability
Test: Anticancer human tumor SW 1271 cell line growth inhibition [LSD1];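 further: spheroids exposed to agents for 7 days before luminescence read; 100% = DMSO vehicle control viability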
Conditions: second compound 1 µM; first compound 0.0949 µM; hits give low values
observed_property: viability, T/C (%)
One number for each entry, in %.

>>> reading("O=C(C=Cc1cccc(S(=O)(=O)Nc2ccccc2)c1)NO + NC1CCC(NC2CC2c2ccccc2)CC1")
52.4
>>> reading("NS(=O)(=O)OCC1CC(n2ccc3c(NC4CCc5ccccc54)ncnc32)CC1O (centres undefined) + NC1CC1c1ccc(-c2cccc(O)c2)cc1")
95.9
>>> reading("CCc1c2c(nc3ccc(O)cc13)-c1cc3c(c(=O)n1C2)COC(=O)[C@]3(O)CC + NC1CC1c1ccc(-c2cccc(O)c2)cc1")
5.98

Sure, the documented viability, T/C for O=C(C=Cc1cccc(S(=O)(=O)Nc2ccccc2)c1)NO + NC1CC1c1ccc(-c2cccc(O)c2)cc1 is 41.8

----------
System: SW 1271 complex spheroids, viability
Test: Anticancer human tumor SW 1271 cell line growth inhibition [LSD1]; active = viability on the fitted dose curve at most 10% of control; inactive = the rest;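 further: spheroids exposed to agents for 7 days before luminescence read; 100% = DMSO vehicle control viability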
Conditions: second compound 1 µM; first compound 3 µM
Parameter call: string, one of active, inactive

Please review the entries below; each comes with its answer.
>>> qualitative_label("Nc1ccccc1NC(=O)c1ccc(CNC(=O)OCc2cccnc2)cc1 + NC1CCC(NC2CC2c2ccccc2)CC1")
"active"
>>> qualitative_label("O=C(C=Cc1cccc(S(=O)(=O)Nc2ccccc2)c1)NO + NC1CC1c1ccc(-c2cccc(O)c2)cc1")
"active"
>>> qualitative_label("O=C(C=Cc1cccc(S(=O)(=O)Nc2ccccc2)c1)NO + NC1CCC(NC2CC2c2ccccc2)CC1")
"inactive"
>>> qualitative_label("CCN(c1cc(-c2ccc(CN3CCOCC3)cc2)cc(C(=O)NCc2c(C)cc(C)[nH]c2=O)c1C)C1CCOCC1 + NC1CCC(NC2CC2c2ccccc2)CC1")
"inactive"
>>> qualitative_label("CCN(c1cc(-c2ccc(CN3CCOCC3)cc2)cc(C(=O)NCc2c(C)cc(C)[nH]c2=O)c1C)C1CCOCC1 + NC1CC1c1ccc(-c2cccc(O)c2)cc1")
"inactive"

Assay result, entry COc1cc(C2c3cc4c(cc3C(OC3OC5COC(C)OC5C(O)C3O)C3COC(=O)C23)OCO4)cc(OC)c1O (stereo not given) + NC1CC1c1ccc(-c2cccc(O)c2)cc1 — outcome?
inactive

Assay result, entry NS(=O)(=O)OCC1CC(n2ccc3c(NC4CCc5ccccc54)ncnc32)CC1O (stereo not given) + NC1CC1c1ccc(-c2cccc(O)c2)cc1 — outcome?
inactive

Assay result, entry NS(=O)(=O)OCC1CC(n2ccc3c(NC4CCc5ccccc54)ncnc32)CC1O (stereo not given) + NC1CCC(NC2CC2c2ccccc2)CC1 — outcome?
inactive

Assay result, entry Nc1ccccc1NC(=O)c1ccc(CNC(=O)OCc2cccnc2)cc1 + NC1CC1c1ccc(-c2cccc(O)c2)cc1 — outcome?
active

Assay result, entry COc1cc(C2c3cc4c(cc3C(OC3OC5COC(C)OC5C(O)C3O)C3COC(=O)C23)OCO4)cc(OC)c1O (stereo not given) + NC1CCC(NC2CC2c2ccccc2)CC1 — outcome?
inactive
